Target: recombinant human acetylcholinesterase, rHsAChE (Homo sapiens, UniProt P22303)
Sequence (P22303 32-614): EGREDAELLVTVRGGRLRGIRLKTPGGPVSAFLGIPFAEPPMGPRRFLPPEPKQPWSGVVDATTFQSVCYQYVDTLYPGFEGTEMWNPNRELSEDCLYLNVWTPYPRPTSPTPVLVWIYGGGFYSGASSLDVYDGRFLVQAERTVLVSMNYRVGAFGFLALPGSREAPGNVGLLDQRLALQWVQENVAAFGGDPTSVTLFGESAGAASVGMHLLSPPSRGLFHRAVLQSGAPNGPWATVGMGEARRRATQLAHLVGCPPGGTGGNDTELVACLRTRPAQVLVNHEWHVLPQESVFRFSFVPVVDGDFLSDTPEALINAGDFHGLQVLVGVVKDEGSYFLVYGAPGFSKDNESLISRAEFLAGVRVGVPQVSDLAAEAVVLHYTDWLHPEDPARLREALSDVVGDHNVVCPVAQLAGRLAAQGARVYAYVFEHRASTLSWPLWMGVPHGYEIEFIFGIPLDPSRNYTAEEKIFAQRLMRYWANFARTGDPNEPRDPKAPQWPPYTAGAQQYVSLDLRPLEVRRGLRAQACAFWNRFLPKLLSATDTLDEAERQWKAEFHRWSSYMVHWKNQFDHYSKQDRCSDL
Experiment: biochemical
readout kind: Data Mode (curve class), rHsAChE

molecule="O=C(NC(=O)c1c(F)cccc1F)Nc1cc(Cl)c(OC(F)(F)C(F)C(F)(F)F)cc1Cl (stereo not shown) [Lufenuron, reference compound]" result=decreasing
molecule=CCCCCCCCCCCCCCCC[N+](C)(C)C result=decreasing
molecule=O=C1[C@@H]2[C@H]3CC[C@H](C3)[C@@H]2C(=O)N1C[C@@H]1CCCC[C@H]1CN1CCN(c2nsc3ccccc23)CC1 result=inactive
molecule=Cc1c(C(=O)NN2CCCCC2)nn(-c2ccc(Cl)cc2Cl)c1-c1ccc(Cl)cc1 result=inactive
molecule=C[C@H]1[C@H](C)CC[C@]2(C(=O)O)CC[C@]3(C)C(=CC[C@@H]4[C@@]5(C)CC[C@H](O)C(C)(C)[C@@H]5CC[C@]43C)[C@H]12 result=inactive
molecule=Cc1nc2sccn2c(=O)c1CCN1CCC(=C(c2ccc(F)cc2)c2ccc(F)cc2)CC1 result=decreasing
molecule=O=C(O)CCc1cc(C(=O)c2ccc(OC3CCCC3)cc2O)ccc1OCc1ccc2c(=O)[nH]oc2c1 result=inactive
molecule=CC(C)(C#N)c1ccc(N2C(=O)OCc3cnc4ccc(-c5cnc6ccccc6c5)cc4c32)cc1 result=inactive
molecule=C#C[C@]1(OC(C)=O)CC[C@H]2[C@@H]3CCC4=C[C@@H](OC(C)=O)CC[C@@H]4[C@H]3CC[C@@]21C result=inactive
molecule="COc1ccc(/C=C/CCCCOc2ccc(C(=O)c3cccc(C(=O)O)c3)cc2CCC(=O)O)cc1 [LY223982, reference compound]" result=decreasing
molecule="Cc1cnc(Nc2ccc(N3CCN(C)CC3)cc2)nc1Nc1cccc(S(=O)(=O)NC(C)(C)C)c1 [TG-101209, reference compound]" result=decreasing
molecule="CC(C)(C)c1ccc(CN2CCN(C(c3ccccc3)c3ccc(Cl)cc3)CC2)cc1 (stereo not shown)" result=inactive

====

Target: rSmTAChE (Schistosoma mansoni, UniProt A0A3Q0KMM5)
Sequence (A0A3Q0KMM5 27-661 limits assumed): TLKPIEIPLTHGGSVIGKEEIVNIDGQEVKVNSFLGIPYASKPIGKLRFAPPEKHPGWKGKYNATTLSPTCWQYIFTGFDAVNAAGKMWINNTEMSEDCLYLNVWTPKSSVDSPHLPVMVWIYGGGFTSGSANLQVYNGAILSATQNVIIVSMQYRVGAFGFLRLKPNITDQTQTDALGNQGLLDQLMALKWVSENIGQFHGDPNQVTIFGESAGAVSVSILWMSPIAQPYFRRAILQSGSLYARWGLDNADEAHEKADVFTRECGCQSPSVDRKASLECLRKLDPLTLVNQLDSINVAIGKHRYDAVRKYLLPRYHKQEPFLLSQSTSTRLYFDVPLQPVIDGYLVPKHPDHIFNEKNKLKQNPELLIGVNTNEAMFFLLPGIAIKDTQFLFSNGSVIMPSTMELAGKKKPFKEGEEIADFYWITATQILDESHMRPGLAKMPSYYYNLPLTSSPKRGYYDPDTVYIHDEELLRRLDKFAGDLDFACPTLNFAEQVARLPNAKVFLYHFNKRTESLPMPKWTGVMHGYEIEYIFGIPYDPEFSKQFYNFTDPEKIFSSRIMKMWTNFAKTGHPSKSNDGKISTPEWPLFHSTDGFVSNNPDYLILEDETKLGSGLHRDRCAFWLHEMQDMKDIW
Experiment: biochemical
Property: Inhibition (%) (Average); scope: individual compounds
readout kind: Inhibition (%) (Average)

structure_smiles=O=C(Cc1cccc(OC(F)(F)F)c1)Nc1ccc(CCCCc2nnc(NC(=O)Cc3ccccn3)s2)nn1 readout_kind="Inhibition (%) (Average)" result_number=71.54
structure_smiles=O=C(NCCCCN1CCN(c2cccc(Cl)c2Cl)CC1)c1ccc2c(c1)Cc1ccccc1-2 readout_kind="Inhibition (%) (Average)" result_number=62.08
structure_smiles=COC(=O)/C=C/c1cccc(N(Cc2ccc(-c3ccc(N(C)C)cc3)cc2)C(=O)C2CCCCC2)c1 readout_kind="Inhibition (%) (Average)" result_number=67.27
structure_smiles=N#C[C@H]1[C@@H](c2ccc(C#CC3CC3)cc2)[C@@H](CO)N1C(=O)Cc1ccccn1 readout_kind="Inhibition (%) (Average)" result_number=64.83

====

Collected SI (Hs/Sm) values appear next to each entry.
Biological target: rSmTAChE (Schistosoma mansoni, UniProt A0A3Q0KMM5)
Type: biochemical
readout kind: SI (Hs/Sm)

molecule="N.N.[Cl][Pt][Cl] [Cisplatin, reference compound]" target_or_system="rSmTAChE (Schistosoma mansoni, UniProt A0A3Q0KMM5)" result_number=9.97
molecule="C[C@H](Cc1ccc(O)c(O)c1)[C@@H](C)Cc1ccc(O)c(O)c1 [Masoprocol, reference compound]" target_or_system="rSmTAChE (Schistosoma mansoni, UniProt A0A3Q0KMM5)" result_number=2.32
molecule=COc1cccc(C#Cc2ccc([C@H]3[C@@H](CO)N(C(=O)c4ccccn4)[C@H]3C#N)cc2)c1 target_or_system="rSmTAChE (Schistosoma mansoni, UniProt A0A3Q0KMM5)" result_number=2.59
molecule="CCCCCCCCCCCC1=C(O)C(=O)C=C(O)C1=O [Embelin, reference compound]" target_or_system="rSmTAChE (Schistosoma mansoni, UniProt A0A3Q0KMM5)" result_number=1.44
molecule="CCN(c1ccccc1)c1cc(=NC)n(C)c(C)n1 [ZD-7288, reference compound]" target_or_system="rSmTAChE (Schistosoma mansoni, UniProt A0A3Q0KMM5)" result_number=46.87
molecule="COc1cc(NC(C)CCCN)c2ncccc2c1 (stereo not drawn) [Primaquine phosphate, reference compound]" target_or_system="rSmTAChE (Schistosoma mansoni, UniProt A0A3Q0KMM5)" result_number=2.21
molecule="Cc1cc(Nc2ncc(Cl)c(Nc3ccccc3S(=O)(=O)C(C)C)n2)c(OC(C)C)cc1C1CCNCC1 [Ceritinib, reference compound]" target_or_system="rSmTAChE (Schistosoma mansoni, UniProt A0A3Q0KMM5)" result_number=1.58
molecule=COc1cccc(C#Cc2ccc([C@@H]3[C@@H](C#N)N(C(=O)c4ccccn4)[C@H]3CO)cc2)c1 target_or_system="rSmTAChE (Schistosoma mansoni, UniProt A0A3Q0KMM5)" result_number=1.1
molecule="Cc1cnc(Nc2ccc(N3CCN(C)CC3)cc2)nc1Nc1cccc(S(=O)(=O)NC(C)(C)C)c1 [TG-101209, reference compound]" target_or_system="rSmTAChE (Schistosoma mansoni, UniProt A0A3Q0KMM5)" result_number=2.51
molecule="CC(C)(C)[S+]([O-])N1Cc2cc(C(=O)NCCN3CCCC3)nc(-c3cccc(-c4ccc(C#N)cc4)c3)c2C1CCO (stereo not drawn)" target_or_system="rSmTAChE (Schistosoma mansoni, UniProt A0A3Q0KMM5)" result_number=2.35
molecule="Nc1nc(NCC2CCC(CNS(=O)(=O)c3cccc4ccccc34)CC2)nc2ccccc12 (stereo not drawn) [CGP-71683, reference compound]" target_or_system="rSmTAChE (Schistosoma mansoni, UniProt A0A3Q0KMM5)" result_number=8.82
molecule="Cc1cc(OCCCS(C)(=O)=O)cc(C)c1-c1cccc(COc2ccc3c(c2)OC[C@H]3CC(=O)O)c1 [TAK-875, reference compound]" target_or_system="rSmTAChE (Schistosoma mansoni, UniProt A0A3Q0KMM5)" result_number=2.25
molecule="O=C(O)c1ccc(-c2c[nH]c3ncc(-c4ccccc4)cc23)cc1C1CCCC1 [GSK-650394, reference compound]" target_or_system="rSmTAChE (Schistosoma mansoni, UniProt A0A3Q0KMM5)" result_number=3.46
molecule="CC(C)c1onc(-c2c(Cl)cccc2Cl)c1COc1ccc(/C=C/c2cccc(C(=O)O)c2)c(Cl)c1 [GW-4064, reference compound]" target_or_system="rSmTAChE (Schistosoma mansoni, UniProt A0A3Q0KMM5)" result_number=6.00
molecule="Oc1cc(Cl)ccc1Oc1ccc(Cl)cc1Cl [Triclosan, reference compound]" target_or_system="rSmTAChE (Schistosoma mansoni, UniProt A0A3Q0KMM5)" result_number=5.78
